- assay-remarks: in vitro
- Parameters: Viability of infected HeLa host cells, resazurin conversion, bulk resorufin fluorescence relative to DMSO
- measurement-setup: human, hela cells; bulk resorufin, mean of 2
Here the recorded viability at 28.5 h, 10 µM is given for each entry.
property-label: viability at 28.5 h, 10 µM (%)

compound: N#Cc1c(Nc2cccc(C(F)(F)F)c2)sc(C(=O)c2ccc3c(c2)OCO3)c1N
reported-result: 81.1
//
compound: Fc1cccc(F)c1OCCOc1nc(N2CCNCC2)ccc1C(F)(F)F [CBK003977A]
reported-result: 89.4
//
compound: COc1cc(/C=N/c2cccc3c(/N=C/c4ccc(O)c(OC)c4)cccc23)ccc1O
reported-result: 81.8
//
compound: CN(C)CCCNC(=O)c1ccc([N+](=O)[O-])o1
reported-result: 104
//
compound: CC(Nc1cccc2ccccc12)C(=O)N/N=C/c1ccc(O)cc1O (stereo not drawn)
reported-result: 82.2
//
compound: CCC(CN1CCCC1)NC(=O)Cc1ccc(OC)c(C)c1 (stereo not drawn)
reported-result: 108
//
compound: COc1cc2c(cc1CNC(=O)c1cn(CCN)nn1)CCC2
reported-result: 92.4
//
compound: O=C(NCCc1c[nH]c2ccc(Cl)cc12)c1ccc(Cl)cc1Cl
reported-result: 98.4
//
compound: Cc1cc(C)nc(NS(=O)(=O)c2ccc(Nc3ccc4nonc4c3[N+](=O)[O-])cc2)n1
reported-result: 79.7
//
compound: O=C(CSCc1ccc(Cl)cc1)Nc1ccc(S(=O)(=O)N2CCCCCC2)cc1
reported-result: 104
//
compound: CN(C)[C@H]1CCC[C@@H]1C(=O)Nc1ccc(Cl)c(Cl)c1
reported-result: 107
//
compound: CN1CCN(c2cc3c(cc2F)c(=O)c(C(=O)O)cn3-c2ccc(F)cc2)CC1
reported-result: 104
//
compound: COCC(=O)N[C@H]1C[C@H]2C(=O)Nc3ccc(/C=C/c4ccccc4)cc3C(=O)N2C1
reported-result: 98.1
//
compound: Cc1ccc(Cn2c(=N)n(CC(=O)c3cc(C(C)(C)C)c(O)c(C(C)(C)C)c3)c3ccccc32)cc1 [CBK262458B]
reported-result: 101
//
compound: Cc1cccc(N(C)S(=O)(=O)c2ccc(N3CCCNCC3)c3ccccc23)c1C [CBK004430C]
reported-result: 88.8
//
compound: O=C(Nc1cccc(OC(=O)c2cc(S(=O)(=O)N3CCCCC3)ccc2Cl)c1)c1ccco1
reported-result: 100
//
compound: COc1ccc(C(C)C)cc1-c1cn2ccnc2c(N2CCN(c3ccncc3)CC2)n1
reported-result: 101
//
compound: CC1=NN(c2ccccc2)C(=O)/C1=C/Nc1ccc(S(=O)(=O)Nc2nc(C)cc(C)n2)cc1
reported-result: 96.8

* * *

A collection of compounds and their measured viability at 28.5 h, 10 µM
- assay-remarks: in vitro
- measurement-setup: human, hela cells, % viability
property-label: viability at 28.5 h, 10 µM (%)

compound: O=C(COC(=O)C1CCN(S(=O)(=O)c2cccc3cccnc23)CC1)c1ccc([N+](=O)[O-])cc1
reported-result: 101

compound: c1ccc(OCCN2CCC3(C2)NCCc2[nH]ccc23)cc1 (centres unmarked) [CBK084595T]
reported-result: 90.9

compound: Cc1ccc(NC(=O)CCC(=O)O)c(C(=O)c2ccccc2)c1
reported-result: 108

compound: CNC(=O)C1CCCCN1C(=O)c1cn(CCOC)c2ccccc12 (centres unmarked)
reported-result: 94.8

compound: Cc1cc(NS(=O)(=O)c2ccc(C(C)C)cc2)n[nH]1
reported-result: 106
